Quick record of IC50 values for 5-HT2A receptor (Rattus norvegicus, UniProt P14842).
QUANTITY_MEASURED: IC50

ITEM_SMILES	TEST_RESULT
COc1nc2c(ccc3cnn(C[C@H](C)N)c32)o1	8 nM
COCc1nc2c(ccc3cnn(C[C@H](C)N)c32)o1	6 nM
CNC(=O)c1nc2c(ccc3cnn(C[C@H](C)N)c32)o1	19 nM

---

Target: UniProtKB P14842
Assay: 5-HT2 Functional Assay: [Ca2+]i Mobilization (FLIPR)
Conditions: [Ca2+]i mobilization, rat vascular smooth muscle cells A7r5
pEC50: −log10 of the molar value.
Listed here: items and their measured pEC50.

MOLECULE	TEST_SYSTEM	pEC50
COCc1nc2c(ccc3cnn(C[C@H](C)N)c32)o1 [Example 2]	UniProtKB P14842	6.76
COc1nc2c(ccc3cnn(C[C@H](C)N)c32)o1 [Example 1]	UniProtKB P14842	6.45
C[C@H](N)Cn1ncc2ccc3oc(C(N)=O)nc3c21 [Example 3]	UniProtKB P14842	6.35
CNC(=O)c1nc2c(ccc3cnn(C[C@H](C)N)c32)o1 [Example 4]	UniProtKB P14842	6.04

---

Target: 5-HT2A receptor (Rattus norvegicus, UniProt P14842)
Sequence (P14842 whole entry): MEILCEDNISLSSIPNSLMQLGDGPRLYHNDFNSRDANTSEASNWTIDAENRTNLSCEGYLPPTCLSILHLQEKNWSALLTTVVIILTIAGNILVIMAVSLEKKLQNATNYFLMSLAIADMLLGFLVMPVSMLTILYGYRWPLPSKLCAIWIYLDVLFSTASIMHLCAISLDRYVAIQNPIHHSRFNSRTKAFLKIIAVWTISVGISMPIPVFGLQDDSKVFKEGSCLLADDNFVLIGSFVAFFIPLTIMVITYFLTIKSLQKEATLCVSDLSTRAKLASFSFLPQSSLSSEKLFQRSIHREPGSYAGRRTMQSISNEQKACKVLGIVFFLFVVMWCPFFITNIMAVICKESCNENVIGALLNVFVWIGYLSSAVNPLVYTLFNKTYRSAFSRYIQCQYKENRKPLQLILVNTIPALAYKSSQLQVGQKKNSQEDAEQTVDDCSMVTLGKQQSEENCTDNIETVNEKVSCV
Assay: 5-HT2 Functional Assay: [Ca2+]i Mobilization (FLIPR)
Format: cell-based
Design: endogenous in cells; host or cells: A7r5 rat vascular smooth muscle cells
Conditions: percentage of maximum 5-HT-induced response, A7r5 cells
Listed here: items and their measured Emax.

ITEM_SMILES	Emax (%)
COc1nc2c(ccc3cnn(C[C@H](C)N)c32)o1	72
CNC(=O)c1nc2c(ccc3cnn(C[C@H](C)N)c32)o1	77
COCc1nc2c(ccc3cnn(C[C@H](C)N)c32)o1	88
C[C@H](N)Cn1ncc2ccc3oc(C(N)=O)nc3c21	72
